Measurement Description: physchem
Condition Notes: toluene
Measured Parameter: remaining at 172 h (%)
Number only, in %; omit the unit.

Recorded remaining at 172 h (compound CC1=C(O)C(=O)C(C)O1 (stereo not shown) [Pineapple ketone, 2,5-dimethyl-4-hydroxy-3(2H)-furanone] ): 9

====

Measurement Description: physchem
Condition Notes: toluene
Measured Parameter: remaining at 69 h (%)
Number only, in %; omit the unit.

Recorded remaining at 69 h (compound CCOC(=O)OC1=C(C)OC(C)C1=O (stereo not shown) [Example 1] ): 100

====

Measurement Description: physchem
Condition Notes: toluene
Measured Parameter: remaining at 48 h (%)
Number only, in %; omit the unit.

Recorded remaining at 48 h (compound CC1=C(O)C(=O)C(C)O1 (stereo not shown) [Pineapple ketone, 2,5-dimethyl-4-hydroxy-3(2H)-furanone] ): 58

====

Measurement Description: physchem
Condition Notes: toluene
Measured Parameter: remaining at 21 h (%)
Number only, in %; omit the unit.

> print(dat)
                                   compound  test.result
1  CCOC(=O)OC1=C(C)OC(C)C1=O (centres unmarked) [Example 1]          100

Moving on to the next compound.
Recorded remaining at 21 h (compound CC1=C(O)C(=O)C(C)O1 (centres unmarked) [Pineapple ketone, 2,5-dimethyl-4-hydroxy-3(2H)-furanone] ): 100

====

Measurement Description: physchem
Condition Notes: toluene
Measured Parameter: remaining at 72 h (%)
Number only, in %; omit the unit.

Recorded remaining at 72 h (molecule CC1=C(O)C(=O)C(C)O1 (stereo not shown) [Pineapple ketone, 2,5-dimethyl-4-hydroxy-3(2H)-furanone] ): 30

====

Measurement Description: physchem
Condition Notes: toluene
Measured Parameter: remaining at 46 h (%)
Number only, in %; omit the unit.

Recorded remaining at 46 h (compound CCOC(=O)OC1=C(C)OC(C)C1=O (stereo not shown) ): 100
